- methodDescription: Growth inhibition of human OVCAR3 cells after 48 hrs by SRB assay
- Format: functional
- cond: OVCAR-3, 48 h
measurementName: GI50 (µM)
Note: unit µM is implicit; provide only the numeric part.

Example molecules with recorded GI50:
> print(dat)
                                        smi  measurementname  quantitativereadout
1  COc1cc2c(=O)n(CCCN3CCOCC3)c3c(c2cc1OCCCN)C(=O)c1cc2c(cc1-3)OCO2             GI50                  0.4
2  C=CCOc1cc2c3c(n(CCCN4CCOCC4)c(=O)c2cc1OC)-c1cc2c(cc1C3=O)OCO2             GI50                  0.3
3  COC(=O)COc1cc2c3c(n(CCCN4CCOCC4)c(=O)c2cc1OC)-c1cc2c(cc1C3=O)OCO2             GI50                  5.8
4  COc1cc2c(=O)n(CCCN3CCOCC3)c3c(c2cc1OCCCN1CCCCC1)C(=O)c1cc2c(cc1-3)OCO2             GI50                  5.4
5  COc1cc2c3c(n(C)c(=O)c2cc1OC)-c1cc2c(cc1C3=O)OCO2             GI50                   73

Moving on to another molecule below.
Read off the recorded GI50 for COc1cc2c(=O)n(CCCN3CCOCC3)c3c(c2cc1OCCCN1CCCC1)C(=O)c1cc2c(cc1-3)OCO2 1.2

Numbers sourced from ChEMBL document CHEMBL3259672.
